OBSERVATION_TYPE: melting point

Worked examples, 4 molecules total:
COCCNc1nc(-c2ccc(=O)n(C)n2)c(-c2ccccc2)nc1N ... 231 to 232.5 °C
CC(C)n1nc(-c2nc(C#N)c(C#N)nc2-c2ccccc2Br)ccc1=O ... 159.5 to 161 °C
COc1ccc(-c2nc(-c3ccc(=O)n(C(C)C)n3)c(-c3ccccc3)nc2N)cn1 ... 230 to 232.5 °C
CC(C)n1nc(-c2nc(-c3ccoc3)c(N)nc2-c2ccccc2)ccc1=O ... 233 to 235 °C

Exam item: If you can, please state the reported melting point value of `CC(C)n1nc(-c2nc(N)c(C#N)nc2-c2ccccc2)ccc1=O` .
Marked response: 238 to 241 °C

Exam item: Next up: `CC(C)n1nc(-c2nc(-c3cccs3)c(N)nc2-c2ccccc2)ccc1=O`
Marked response: 181 to 183 °C

Exam item: Please do the same for `Cn1nc(-c2nc(NCCN3CCCCC3)c(N)nc2-c2ccccc2)ccc1=O` as well.
Marked response: 155 to 157 °C

Exam item: Moving on to the next molecule: `CC(C)n1nc(-c2nc(OCC(F)(F)F)c(N)nc2-c2ccccc2)ccc1=O`
Marked response: 233 to 235 °C

Exam item: Would you mind doing `CC(C)n1nc(-c2nc(NCc3ccccc3)c(N)nc2-c2ccccc2)ccc1=O` as well?
Marked response: 181 to 183.5 °C

###

OBSERVATION_TYPE: melting point

Answered cases to consult:
CC(C)n1nc(-c2nc(N3CCCC3)c(N)nc2-c2ccccc2)ccc1=O ... 192 to 194.5 °C
CC(C)n1nc(-c2nc(-n3ccnc3)c(N)nc2-c2ccccc2)ccc1=O ... > 250 °C
CC(C)n1nc(-c2ncc(N=S(C)C)nc2-c2ccccc2)ccc1=O ... 190 to 194 °C
COc1nc(-c2ccc(=O)n(C(C)C)n2)c(-c2ccccc2)nc1N ... 211 to 214 °C

Exam item: Bench note: what melting point did `CCCCNc1nc(-c2ccc(=O)n(C)n2)c(-c2ccccc2)nc1N` show?
Marked response: 253 to 255 °C

###

Below, each entry is listed with its recorded melting point.

Example entries and their recorded answers appear below.
Cn1nc(-c2nc(-n3cncn3)c(N)nc2-c2ccccc2)ccc1=O ... > 250 °C
CC(C)n1nc(-c2nc(NCC3CCCCC3)c(N)nc2-c2ccccc2)ccc1=O ... 219 to 221 °C
Cn1nc(-c2nc(NC3CCN(Cc4ccccc4)CC3)c(N)nc2-c2ccccc2)ccc1=O ... 191 to 194 °C
Cc1nc(-c2ccc(=O)n(C(C)C)n2)c(-c2ccccc2)nc1O ... > 250 °C
CC(C)n1nc(-c2nc(Sc3ccc(F)cc3)c(N)nc2-c2ccccc2)ccc1=O ... 148 to 150 °C
CC(C)n1nc(-c2nc(OC3CCN(Cc4ccccc4)CC3)c(N)nc2-c2ccccc2)ccc1=O ... 148 to 150.5 °C
CC(C)n1nc(-c2nc(C(=O)O)c(N)nc2-c2ccccc2)ccc1=O ... 233 to 235 °C
Cn1nc(-c2nc(NCc3ccccn3)c(N)nc2-c2ccccc2)ccc1=O ... > 250 °C

// switching to the query molecule
Exam item: Requested read-out: melting point. Entry: `Cn1nc(-c2nc(OCc3ccco3)c(N)nc2-c2ccccc2)ccc1=O`
Marked response: 158 to 159.5 °C

###

OBSERVATION_TYPE: melting point

Sample answers from the record:
CC(C)n1nc(-c2nc(C#N)c(N=CN(C)C)nc2-c2ccccc2Br)ccc1=O ... 197 to 199 °C
CC(C)n1nc(-c2nc(N3CCC(NS(C)(=O)=O)CC3)c(N)nc2-c2ccccc2)ccc1=O ... 220 to 222 °C
Cn1nc(-c2nc(OC3CCN(Cc4ccccc4)CC3)c(N)nc2-c2ccccc2)ccc1=O ... 147 to 149 °C
CC(C)n1nc(-c2nc(-n3cccc3)c(N)nc2-c2ccccc2)ccc1=O ... 132 to 136 °C
CC(C)n1nc(-c2nc(C#C[Si](C)(C)C)c(N)nc2-c2ccccc2)ccc1=O ... 213 to 215 °C
CC(C)n1nc(-c2nc(C(N)=O)c(N)nc2-c2cccs2)ccc1=O ... 238 to 240 °C

Exam item: So what's the measured melting point for this one? `CC(C)n1nc(-c2nc(NC=O)c(C#N)nc2-c2ccccc2)ccc1=O`
Marked response: 206 to 208 °C

Exam item: Now give it for `CC(C)n1nc(-c2nc(N3CCN(c4ccccn4)CC3)c(N)nc2-c2ccccc2)ccc1=O` too.
Marked response: 163 to 165 °C

Exam item: Param item: `CC(=O)NCCNc1nc(-c2ccc(=O)n(C(C)C)n2)c(-c2ccccc2)nc1N`
Marked response: 147 to 149 °C

Exam item: // repeat for `Cn1nc(-c2nc(N3CCN(c4ccccc4)CC3)c(N)nc2-c2ccccc2)ccc1=O` and report
Marked response: 155 to 157 °C

Exam item: Now the same for `COC1CCN(c2nc(-c3ccc(=O)n(C(C)C)n3)c(-c3ccccc3)nc2N)CC1`
Marked response: 179 to 181 °C

Exam item: Next entry: `Cn1nc(-c2nc(C(=O)O)c(N)nc2-c2ccccc2)ccc1=O`
Marked response: 238 °C (dec.)

Exam item: Another molecule to check: `CCn1nc(-c2nc(C#N)c(N)nc2-c2ccccc2)ccc1=O`
Marked response: > 250 °C

Exam item: What would you report for `CCn1nc(-c2nc(C#N)c(NCc3ccc(OC)cc3)nc2-c2ccccc2)ccc1=O` ?
Marked response: 165.5 to 167.5 °C

Exam item: Query `Cn1nc(-c2nc(-n3cnc4ccccc43)c(N)nc2-c2ccccc2)ccc1=O` next
Marked response: > 250 °C

Exam item: Also check `CC(C)n1nc(-c2nc(N)c(C(N)=O)nc2-c2ccccc2)ccc1=O`
Marked response: 217 to 220 °C

Exam item: Request: `CC(C)n1nc(-c2nc(N3CCCCC3)c(N)nc2-c2ccccc2)ccc1=O`
Marked response: 183 to 185 °C

###

TESTED_ON: human A1 receptor (Homo sapiens, UniProt P30542)
Sequence (P30542 whole entry): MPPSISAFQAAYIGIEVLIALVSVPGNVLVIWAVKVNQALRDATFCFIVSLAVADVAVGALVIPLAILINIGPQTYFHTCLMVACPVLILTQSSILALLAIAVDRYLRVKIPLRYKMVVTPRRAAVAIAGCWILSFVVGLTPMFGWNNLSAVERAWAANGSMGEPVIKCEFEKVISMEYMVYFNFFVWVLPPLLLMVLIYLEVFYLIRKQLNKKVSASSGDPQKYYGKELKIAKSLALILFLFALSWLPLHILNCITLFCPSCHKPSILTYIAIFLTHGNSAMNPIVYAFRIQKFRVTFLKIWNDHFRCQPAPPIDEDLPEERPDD
PROTOCOL_TEXT: Adenosine antagonistic activity, radioligand binding ([3H]DPCPX)
COND: [3H]DPCPX 4.5 nM
OBSERVATION_TYPE: Ki (nM)

Observe how each entry below is paired with its result.
Cn1nc(-c2nc(C#N)c(N)nc2-c2ccccc2)ccc1=O ... 11.2
Cn1nc(-c2nc(-n3cccn3)c(N)nc2-c2ccccc2)ccc1=O ... 18.9
CC(C)n1nc(-c2nc(C#Cc3cncn3C)c(N)nc2-c2ccccc2)ccc1=O ... 0.72
CC(C)n1nc(-c2nc(NCc3ccco3)c(N)nc2-c2ccccc2)ccc1=O ... 6.66
CC(C)n1nc(-c2nc(OCc3ccccn3)c(N)nc2-c2ccccc2)ccc1=O ... 1.35
CC(C)n1nc(-c2ncc(N)nc2-c2ccc(F)cc2)ccc1=O ... 23
CCCCOc1nc(-c2ccc(=O)n(C)n2)c(-c2ccccc2)nc1N ... 16.4
CC(C)n1nc(-c2nc(Br)c(N=S(C)C)nc2-c2ccccc2)ccc1=O ... 16
CC(C)n1nc(-c2nc(Cl)c(N)nc2-c2ccc(F)cc2)ccc1=O ... 15.9

I = Cn1nc(-c2nc(OCc3ccco3)c(N)nc2-c2ccccc2)ccc1=O
II = CC(C)n1nc(-c2nc(C#Cc3ccccc3)c(N)nc2-c2ccccc2)ccc1=O
Exam item: Sorting ascending by Ki, which comes first: I or II ? Your choice should be expressed through its label.
Marked response: II
(II: 0.88 nM, I: 13.2 nM)

###

OBSERVATION_TYPE: melting point

CC(C)n1nc(-c2nc(NCCCc3ccccc3)c(N)nc2-c2ccccc2)ccc1=O ... 185.5 to 187 °C
CC(C)n1nc(-c2nc(C(N)=S)c(N)nc2-c2ccccc2)ccc1=O ... > 250 °C
CSc1nc(-c2ccc(=O)n(C(C)C)n2)c(-c2ccccc2)nc1N ... 211 to 214 °C
C#Cc1nc(-c2ccc(=O)n(C(C)C)n2)c(-c2ccccc2)nc1N ... 217 °C (dec.)

Exam item: Returns the measured melting point for the input compound. Input: `CN(C)c1nc(-c2ccc(=O)n(C)n2)c(-c2ccccc2)nc1N`
Marked response: 150 to 152 °C

Exam item: Likewise for `CC(C)n1nc(-c2nc(OCCN(C)C)c(N)nc2-c2ccccc2)ccc1=O` ?
Marked response: 136 to 137.5 °C

Exam item: Can you handle `CC(C)n1nc(-c2nc(C(=O)O)c(N)nc2-c2ccccc2Br)ccc1=O` next?
Marked response: 237 °C (dec.)

###

Each entry below carries its recorded melting point.

Exam item: I would be grateful if you could share the reported melting point for `CC(C)n1nc(-c2nc(OCc3ccccn3)c(N)nc2-c2ccccc2)ccc1=O` .
Marked response: 150 to 151 °C

Exam item: Let us now turn to `COCCOc1nc(-c2ccc(=O)n(C(C)C)n2)c(-c2ccccc2)nc1N`
Marked response: 128 to 130 °C

Exam item: Same again, this time with `CC(C)n1nc(-c2nc(-c3cnn(C)c3)c(N)nc2-c2ccccc2)ccc1=O`
Marked response: 201 to 203 °C

Exam item: Do the same for CC(C)n1nc(-c2nc(OC3CCN(Cc4ccccc4)C3)c(N)nc2-c2ccccc2)ccc1=O (stereo not drawn) please
Marked response: 179 to 181 °C

Exam item: Ok, now `CC(C)n1nc(-c2nc(OCCCCOCc3ccccc3)c(N)nc2-c2ccccc2)ccc1=O`
Marked response: 96.5 to 97.5 °C

Exam item: Cool, now `CC(C)n1nc(-c2nc(Br)c(N)nc2-c2ccccc2)ccc1=O`
Marked response: 204 to 206 °C

Exam item: Same for `CC(C)n1nc(-c2nc(NCCc3ccccc3)c(N)nc2-c2ccccc2)ccc1=O`
Marked response: 204.5 to 207 °C

Exam item: Now this one: `CC(C)n1nc(-c2nc(C(N)=O)c(C#N)nc2-c2ccccc2)ccc1=O`
Marked response: 195 to 197 °C

Exam item: Same thing, different compound: `CC(C)n1nc(-c2nc(N3CCN(c4ccccc4)CC3)c(N)nc2-c2ccccc2)ccc1=O`
Marked response: 193 to 195 °C

Exam item: Same question, `CC(C)n1nc(-c2nc(OCc3ccccc3)c(N)nc2-c2ccccc2)ccc1=O` this time
Marked response: 118 to 120 °C

Exam item: Now the same for `CC(C)n1nc(-c2nc(C3=CCN(C)CC3)c(N)nc2-c2ccccc2)ccc1=O`
Marked response: 209 to 211 °C

Exam item: Further, for `CC(C)n1nc(-c2nc(C3=CCCN(C)C3)c(N)nc2-c2ccccc2)ccc1=O` ?
Marked response: 191 to 193 °C

Exam item: Now consider `CC(C)n1nc(-c2nc(Br)c(N=S(C)C)nc2-c2ccccc2)ccc1=O` .
Marked response: 220 to 224 °C
